Molecular target: HLA-A*02:01
Assay: IEDB peptide-MHC binding, purified MHC/direct/fluorescence; filed as Kd, often an IC50 or EC50 that approximates it; bounds were set here for any values at or beyond the usual limits of such assays
Conditions: source organism: Vibrio alginolyticus 12G01
measure: Kd

INSERT INTO results (sequence_text, measure, result) VALUES
  ('VVRGIDGGV', 'Kd', '≥ 20 µM');

###

Biological target: HLA-B*44:02
Assay: IEDB peptide-MHC binding, purified MHC/competitive/radioactivity; filed as Kd, often an IC50 or EC50 that approximates it; bounds were set here for any values at or beyond the usual limits of such assays
Details: source organism: Mammarenavirus guanaritoense
measure: Kd

INSERT INTO results (sequence_text, result) VALUES
  ('ADSEITETY', '6.54 µM'),
  ('IDFLIMRNL', '14.5 µM');
